experiment: Plasma levels in an experimental mouse model of TB; settings: in vivo, po, 5 mg/kg
result-type: Tmax (h)
// return numeric value only (unit: h, not printed)

Exercise: Fill in Tmax for record CO[C@H]1/C=C/O[C@@]2(C)Oc3c(C)c(O)c4c(O)c(c(/C=N/N5CCN(C)CC5)c(O)c4c3C2=O)NC(=O)/C(C)=C\C=C\[C@H](C)[C@H](O)[C@@H](C)[C@@H](O)[C@@H](C)[C@H](OC(C)=O)[C@@H]1C
Key: 6

----------
assay: Plasma levels in an experimental mouse model of TB; details: in vivo, po, 2.5 mg/kg
result-type: concentration at 12 h (ng/mL)
Field: numeric (ng/mL). Do not append units.

Exercise: Give a short answer stating reported concentration at 12 h for C[C@]1(COc2ccc(N3CCC(Oc4ccc(OC(F)(F)F)cc4)CC3)cc2)Cn2cc([N+](=O)[O-])nc2O1 .
Key: 166
